Source: PubChem BioAssay (NCATS)

Test system: Hek293T
assay_notes: Primary qHTS to identify gynecologic anti-cancer compounds using libraries of approved drugs and bioactive compounds (AID 1345084); further: nearly all actives have a fitted effect of over 55% in size
measurement_setup: Gynecologic cancer cell panel viability, ATPlite luminescence, 48 h, control line for the selectivity index; series mostly up to 57.5 µM
Inconclusive results are not listed. Active and inactive are the calls of the source. The call rests on the fitted dose curve; in most records, active means well fitted cell-killing curve with a large enough effect; inconclusive means small, poorly fitted or top-dose-only effect, or effect the other way; inactive means flat fitted curve, though single readings scatter.
Please state which outcome applies, choosing from active, inactive

Consider the worked cases shown below.
| molecule | test_system | label |
| --- | --- | --- |
| Cc1c(N[C@@H](c2nnc(-c3ccc(C#N)cc3)o2)[C@H](C)O)ccc(C#N)c1Cl | Hek293T | inactive |
| O=C(NCCN1CCC2(CC1)C(=O)NCN2c1cccc(F)c1)c1ccc(F)c(F)c1 | Hek293T | inactive |
| COC1CC(O[C@H]2CC[C@]3(C)C4CC[C@]5(C)[C@@H](C6=CC(=O)OC6)[C@@H](OC(C)=O)C[C@]5(O)C4CC[C@@H]3C2)OC(C)C1O (some centres undefined) | Hek293T | active |
| CC(O)(c1ccccc1)C(Cc1ccc(Cl)cc1)n1cncn1 (centres undefined) | Hek293T | inactive |
| CN1C[C@@H]2CN(c3ccc(-c4ccccc4)nn3)C[C@@H]2C1 | Hek293T | inactive |
| CN1CCCCC1Cn1cc(C(=O)c2cc([N+](=O)[O-])ccc2I)c2ccccc21 (centres undefined) | Hek293T | inactive |
| C/C=C(/C)C1C=CC2CC(C)CC(C)C2C1/C(O)=C1\C(=O)NC(CC(C)(O)C(=O)O)C1=O (centres undefined) | Hek293T | inactive |
| CC(=O)O[C@H]1CN2CCC1CC2 | Hek293T | inactive |

[ask] So what was the verdict on CC[C@@]1(O)C(=O)OCc2c1cc1n(c2=O)Cc2cc3c(OC)cccc3nc2-1 in this test?
[reply] active

[ask] Now try CCOc1ccc(Oc2ccc(OCc3cc(F)ccc3F)cc2)c(N)c1 .
[reply] inactive

[ask] Now try CC(=O)O[C@H]1CC[C@H]2[C@@H]3CC[C@H]4CC(=O)C=C(C)[C@]4(C)[C@H]3CC[C@]12C .
[reply] inactive

[ask] Now try COc1cc(N2CCN(C)CC2)ccc1N .
[reply] inactive

[ask] Now try C[C@]12CCC(=O)C=C1CC[C@@H]1[C@@H]2[C@@H](O)C[C@]2(C)C(=O)CC[C@@H]12 .
[reply] inactive
